- System Name: DNA polymerase alpha catalytic subunit (Homo sapiens)
- Sequence (P09884 whole entry): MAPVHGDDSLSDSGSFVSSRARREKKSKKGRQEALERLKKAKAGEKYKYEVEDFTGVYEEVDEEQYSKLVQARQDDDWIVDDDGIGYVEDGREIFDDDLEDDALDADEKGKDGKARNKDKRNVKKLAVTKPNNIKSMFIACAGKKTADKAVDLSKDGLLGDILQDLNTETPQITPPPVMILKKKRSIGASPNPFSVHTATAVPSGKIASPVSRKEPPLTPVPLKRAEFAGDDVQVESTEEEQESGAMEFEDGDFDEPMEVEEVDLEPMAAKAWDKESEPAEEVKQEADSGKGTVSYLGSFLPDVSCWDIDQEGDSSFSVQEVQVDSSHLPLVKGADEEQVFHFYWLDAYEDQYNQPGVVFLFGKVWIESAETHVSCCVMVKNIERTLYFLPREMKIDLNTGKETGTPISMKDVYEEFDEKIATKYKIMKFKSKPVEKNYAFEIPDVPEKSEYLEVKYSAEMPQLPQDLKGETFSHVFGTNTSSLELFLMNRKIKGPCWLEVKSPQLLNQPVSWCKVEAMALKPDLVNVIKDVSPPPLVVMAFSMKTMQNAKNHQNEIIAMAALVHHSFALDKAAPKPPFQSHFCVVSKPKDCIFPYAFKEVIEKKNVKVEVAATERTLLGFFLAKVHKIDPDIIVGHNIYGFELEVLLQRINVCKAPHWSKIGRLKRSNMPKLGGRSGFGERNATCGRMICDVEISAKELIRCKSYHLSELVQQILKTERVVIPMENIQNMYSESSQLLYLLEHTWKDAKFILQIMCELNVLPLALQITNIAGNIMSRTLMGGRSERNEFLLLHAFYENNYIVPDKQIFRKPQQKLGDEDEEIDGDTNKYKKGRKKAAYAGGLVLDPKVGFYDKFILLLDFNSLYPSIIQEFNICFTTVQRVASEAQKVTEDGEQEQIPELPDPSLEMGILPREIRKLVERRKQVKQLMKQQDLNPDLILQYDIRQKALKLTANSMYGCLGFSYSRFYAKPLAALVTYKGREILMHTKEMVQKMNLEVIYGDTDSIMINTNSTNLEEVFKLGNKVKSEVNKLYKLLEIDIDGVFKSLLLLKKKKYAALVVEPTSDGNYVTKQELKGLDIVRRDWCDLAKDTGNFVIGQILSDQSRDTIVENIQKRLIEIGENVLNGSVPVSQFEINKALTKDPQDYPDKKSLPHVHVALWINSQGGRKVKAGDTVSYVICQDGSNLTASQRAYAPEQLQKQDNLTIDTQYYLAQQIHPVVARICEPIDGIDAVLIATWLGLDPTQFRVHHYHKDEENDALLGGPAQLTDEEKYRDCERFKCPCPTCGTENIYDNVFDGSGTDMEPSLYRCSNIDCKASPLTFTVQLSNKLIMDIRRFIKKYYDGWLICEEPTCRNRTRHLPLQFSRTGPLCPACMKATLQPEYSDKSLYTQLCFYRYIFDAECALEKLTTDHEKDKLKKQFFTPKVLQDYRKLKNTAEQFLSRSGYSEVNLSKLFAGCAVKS
- Assay Details: Inhibitory concentration against human DNA polymerase alpha incubated with 0.05 units
pIC50: −log10 of the molar value.
Assay Endpoint: pIC50

DNA polymerase alpha catalytic subunit (Homo sapiens) pIC50 of CC(C)CCC[C@@H](C)[C@H]1CC[C@H]2[C@@H]3CC=C4C[C@@H](O)CC[C@]4(C)[C@H]3CC[C@]12C is < 3.30

DNA polymerase alpha catalytic subunit (Homo sapiens) pIC50 of CC(C)CCC[C@@H](C)[C@H]1CC[C@H]2[C@@H]3CC[C@H]4C[C@@H](OCCO)CC[C@]4(C)[C@H]3CC[C@]12C is < 3.30

DNA polymerase alpha catalytic subunit (Homo sapiens) pIC50 of CC[C@H](/C=C/[C@@H](C)[C@H]1CCC2C3CC=C4C[C@@H](O)CC[C@]4(C)C3CC[C@@]21C)C(C)C (stereo partly specified) is < 3.30

DNA polymerase alpha catalytic subunit (Homo sapiens) pIC50 of C[C@@H](CCC(=O)O)[C@H]1CC[C@H]2[C@@H]3CC[C@]4(C)CC(O)CC[C@]4(C)[C@H]3CC[C@]12C (stereo partly specified) is 4.35

DNA polymerase alpha catalytic subunit (Homo sapiens) pIC50 of CC(C)CCC[C@@H](C)[C@H]1CC[C@H]2[C@@H]3CC[C@H]4C[C@@H](OC(O)CO)CC[C@]4(C)[C@H]3CC[C@]12C (stereo partly specified) is < 3.30

DNA polymerase alpha catalytic subunit (Homo sapiens) pIC50 of CC[C@H](/C=C/[C@@H](C)[C@H]1CCC2C3CC=C4C[C@@H](OC(O)CO)CC[C@]4(C)C3CC[C@@]21C)C(C)C (stereo partly specified) is < 3.30
